Value source: the supplement of paper PMC9170038

- Test system: MS2 coat protein
- test.name: apparent KD of MS2 coat protein; designed switch direction (-1 OFF switch, 1 ON switch): -1; higher = weaker reporter binding
- condition.description: input ligand: FMN 200 uM
Classification field: enter Condition met for apparent KD of MS2 coat protein values not below 20 nM, Condition not met for values below it.

Below, 4 sequences whose answers are already recorded.
GCAGCAACUCUAAUCAACCAAACAUGAGGAUCACCCAUGUCUCAGGAUAUGGUCUGGAUUACAGGCCAGAAGGGAGAAAGCUGC [Eli exng3 - 044] (Eterna round: R96, puzzle: Exclusion NG 3) : Condition not met
GGAGGAGGAGUGAGGAUAUGGUGGUGGAAACACCACCAGAAGGCACAUGAGGAUCACCCAUGUGAUGUAGAGAA [AK-MS2ROC-r4-Bmoexclusion4-16] (Eterna round: R97, puzzle: Brourd's mod of Exclusion 4) : Condition met
GCACGGGUGGUAGGAUAUCCUUGCGAUUAGCAAGGAGAAGGACCACAUGAGGAUCACCCAUGUACCUCAAUUAUCCUUCCGUGC [Eli exng1 - 024] (Eterna round: R96, puzzle: Exclusion NG 1) : Condition not met
AAUUAGUAUGUGAGGAUAUUAAUGGAAUGACUUAUUAAGAAGGCACAUGAGGAUCACCCAUGUGGGAAGUCACG [JR_BMEx4_Sub013] (Eterna round: R97, puzzle: Brourd's mod of Exclusion 4) : Condition met

Query sequence follows.
Assess whether reported apparent KD of MS2 coat protein for AAGAACCCGGUAGGAUAUAUUGUGGGCAAACAUGGAACAACAUGAGGAUCACCCAUGUAAUUUAGGUAGAAGGGCCAAAAGAGA [Default title] (Eterna round: R96, puzzle: Exclusion NG 2) sits at 20 nM or higher.
Condition met
